These entries and their values trace back to patent US11053204B2.

For each entry below, report its Plant response rating, Barnyardgrass value.
Tested on: barnyardgrass (Echinochloa crus-galli)
TEST: Test B flooded paddy test, plant response rating
Type: in vivo
CONDITION_DETAILS: 250 g ai/ha; Flood; scale of 0 to 100 where 0 is no effect and 100 is complete control; 13 to 15 days
Text: At time of treatment, test pots were flooded to 3 cm above the soil surface, treated by application of test compounds directly to the paddy water, and then maintained at that water depth for the duration of the test. Treated plants and controls were maintained in a greenhouse for 13 to 15 days, after which time all species were compared to controls and visually evaluated. […] A dash (-) response means no test result.
Answers are plain numbers.

Here is how some molecules turned out for Plant response rating, Barnyardgrass.
MOLECULE	STUDY_TARGET	RESULT_TYPE	ASSAY_RESULT
O=C(OC/C=C/C(F)(F)F)c1c(Br)cccc1Oc1ncc(Cl)cn1 [Compound 50]	barnyardgrass (Echinochloa crus-galli)	Plant response rating, Barnyardgrass	0
CCCCOC(=O)c1c(Br)cccc1Oc1ncc(Cl)cn1 [Compound 100]	barnyardgrass (Echinochloa crus-galli)	Plant response rating, Barnyardgrass	40
N#Cc1cccc(Oc2ncc(Cl)cn2)c1C(=O)CCCCC(F)(F)F [Compound 109]	barnyardgrass (Echinochloa crus-galli)	Plant response rating, Barnyardgrass	0
CC(C)ON=Cc1ccccc1Oc1ncc(Cl)cn1 [Compound 57]	barnyardgrass (Echinochloa crus-galli)	Plant response rating, Barnyardgrass	0

// each listed molecule needs a value for Plant response rating, Barnyardgrass
1. O=C(CCCCC(F)(F)F)c1c(Br)cccc1Oc1ncc(Cl)cn1 [Compound 82]
2. CCCCC(=O)c1c(C#N)cccc1Oc1ncc(Cl)cn1 [Compound 68]
3. CC(=NOC(C)C)c1c(C#N)cccc1Oc1ncc(Cl)cn1 [Compound 69]
4. O=C(CCCC(F)(F)F)c1c(Cl)cccc1Oc1ncc(Cl)cn1 [Compound 143]
5. CC(C)(C)CCOC(=O)c1c(Br)cccc1Oc1ncc(Cl)cn1 [Compound 96]
6. FC(F)(F)CCCCCc1c(Cl)cccc1Oc1ncc(Cl)cn1 [Compound 124]
7. CN(CCC(F)(F)F)C(=O)c1c(Br)cccc1Oc1ncc(Cl)cn1 [Compound 19]

-- reply
35
0
0
50
0
45
0

// each listed molecule needs a value for Plant response rating, Barnyardgrass
1. CCOCc1c(Br)cccc1Oc1ncc(Cl)cn1 [Compound 106]
2. N#CC(CCCCC(F)(F)F)c1ccccc1Oc1ncc(Cl)cn1 (centres unmarked) [Compound 145]
3. CCSC(=O)c1c(Br)cccc1Oc1ncc(Cl)cn1 [Compound 83]
4. CN(OCC(F)(F)F)C(=O)c1c(Br)cccc1Oc1ncc(Cl)cn1 [Compound 25]
5. CCCCc1c(C#N)cccc1Oc1ncc(Cl)cn1 [Compound 86]
6. CCCCC(C#N)c1ccccc1Oc1ncc(Cl)cn1 (centres unmarked) [Compound 129]
7. N#Cc1ccc(Oc2ncc(Cl)cn2)c(C(=O)OCCC(F)(F)F)c1 [Compound 64]

-- reply
1: 0; 2: 50; 3: 0; 4: 0; 5: 40; 6: 45; 7: 0

// each listed molecule needs a value for Plant response rating, Barnyardgrass
1. O=C(OCC1CCC1)c1c(Br)cccc1Oc1ncc(Cl)cn1 [Compound 8]
2. N#Cc1cccc(Oc2ncc(Cl)cn2)c1C(=O)CCC(F)(F)F [Compound 142]

-- reply
0
0

----------
Tested on: geranium, cutleaf (cutleaf geranium, Geranium dissectum)
TEST: Test C postemergence, plant response rating
Assay type: in vivo
CONDITION_DETAILS: 125 g ai/ha, scale 0 to 100 (0 no effect, 100 complete control)
Source text: […]
For each entry below, report its Geranium, Cutleaf plant response rating value.
One number for each entry.

Here is how some molecules turned out for Geranium, Cutleaf plant response rating.
COMPOUND_SMILES	Geranium, Cutleaf plant response rating
O=C(CCCC(F)(F)F)c1c(Oc2ncc(Cl)cn2)cccc1C(F)(F)F	55
N#Cc1cccc(Oc2ncc(Cl)cn2)c1COCCC(F)(F)F	60
FC(F)(F)CCCCc1c(Br)cccc1Oc1ncc(Cl)cn1	60
O=C(CCCCC(F)(F)F)c1c(Br)cccc1Oc1ncc(Cl)cn1	60

# input for lookup
-- ask State, in one line, measured Geranium, Cutleaf plant response rating of CCCC(=O)c1c(Oc2ncc(Cl)cn2)cccc1C(F)(F)F
-- reply 45

----------
For each entry below, report its Plant response rating, Ragweed value.
Test system: ragweed (common ragweed, Ambrosia elatior)
TEST: Test C preemergence, plant response rating
Type: in vivo
CONDITION_DETAILS: Preemergence, 125 g ai/ha; scale of 0 to 100
Numbers only.

Here is how some compounds turned out for Plant response rating, Ragweed.
COMPOUND	RESULT_TYPE	ASSAY_RESULT
O=C(OCCC(F)(F)F)c1c(Br)cccc1Oc1ncc(Br)cn1 [Compound 33]	Plant response rating, Ragweed	50
CCCC(=O)c1c(Br)cccc1Oc1ncc(Cl)cn1 [Compound 75]	Plant response rating, Ragweed	5
FC(F)(F)CCCCc1c(Br)cccc1Oc1ncc(Cl)cn1 [Compound 138]	Plant response rating, Ragweed	10
FC(F)(F)CCCc1c(Br)cccc1Oc1ncc(Cl)cn1 [Compound 89]	Plant response rating, Ragweed	50
O=C(CCCC(F)(F)F)c1c(Br)cccc1Oc1ncc(Cl)cn1 [Compound 77]	Plant response rating, Ragweed	45

-- ask State, in one line, measured Plant response rating, Ragweed of N#Cc1cccc(Oc2ncc(Cl)cn2)c1COCCC(F)(F)F [Compound 80]
-- reply 20

----------
System: kochia (Kochia scoparia)
TEST: Test C postemergence, plant response rating
Type: in vivo
CONDITION_DETAILS: 16 g ai/ha, scale of 0 to 100
RESULT_TYPE: Plant response rating, Kochia

Here is how some compounds turned out for Plant response rating, Kochia.
COMPOUND	STUDY_TARGET	Plant response rating, Kochia
O=C(CCCCC(F)(F)F)c1c(Br)cccc1Oc1ncc(Cl)cn1	kochia (Kochia scoparia)	80
FC(F)(F)CCCc1c(Br)cccc1Oc1ncc(Cl)cn1	kochia (Kochia scoparia)	70
CCCC(=O)c1c(Oc2ncc(Cl)cn2)cccc1C(F)(F)F	kochia (Kochia scoparia)	80

// each listed compound needs a value for Plant response rating, Kochia
1. N#CC(CCCC(F)(F)F)c1ccccc1Oc1ncc(Cl)cn1 (stereo not drawn)
2. O=C(CCC(F)(F)F)c1c(Br)cccc1Oc1ncc(Cl)cn1

-- reply
[85, 100]

-- ask State, in one line, measured Plant response rating, Kochia of CCCCC(=O)c1c(Oc2ncc(Cl)cn2)cccc1C(F)(F)F
-- reply 80

----------
For each entry below, report its pest or weed control at 500 g/ha value.
System: Italian ryegrass (Lolium multiflorum)
TEST: Test A preemergence, visual injury rating
Type: in vivo
CONDITION_DETAILS: Lolium multiflorum, pre-emergence, 240 h, 500 g ai/ha, 0 to 100 scale (0 no effect, 100 complete control), read-out: Ryegrass, Italian plant response rating
Source text: […]
Number first, unit second: that is the form wanted.

Here is how some compounds turned out for pest or weed control at 500 g/ha.
COMPOUND	STUDY_TARGET	pest or weed control at 500 g/ha
C=CCCOC(=O)c1c(Br)cccc1Oc1ncc(Cl)cn1 [Compound 21]	Italian ryegrass (Lolium multiflorum)	90%
O=C(OCC(F)(F)C(F)(F)F)c1c(Br)cccc1Oc1ncc(Cl)cn1 [Compound 23]	Italian ryegrass (Lolium multiflorum)	40%
O=C(OCCC(F)(F)F)c1c(Cl)cccc1Oc1ncc(Cl)cn1 [Compound 15]	Italian ryegrass (Lolium multiflorum)	90%

# input for lookup
-- ask State, in one line, measured pest or weed control at 500 g/ha of O=C(OCCCC(F)(F)F)c1c(Br)cccc1Oc1ncc(Cl)cn1 [Compound 20]
-- reply 90%

----------
Test system: corn (Zea mays)
TEST: Test C postemergence, plant response rating
Type: in vivo
CONDITION_DETAILS: Zea mays, post-emergence, 16 g ai/ha, scale 0 to 100
RESULT_TYPE: Corn plant response rating (crop injury, 0 = no effect, 100 = complete kill) at 16 g/ha (%)
One number for each entry, in %.

Here is how some compounds turned out for Corn plant response rating (crop injury, 0 = no effect, 100 = complete kill) at 16 g/ha.
COMPOUND_SMILES	QUANTITY_UNIT	ASSAY_RESULT
O=C(OCCC(F)(F)F)c1c(Cl)cccc1Oc1ncc(Cl)cn1	%	15
N#Cc1cccc(Oc2ncc(Cl)cn2)c1CCCCC(F)(F)F	%	10
O=C(OCCC(F)(F)F)c1c(Br)cccc1Oc1ncc(Cl)cn1	%	20

# input for lookup
-- ask State, in one line, measured Corn plant response rating (crop injury, 0 = no effect, 100 = complete kill) at 16 g/ha of O=C(OCC(F)(F)C(F)(F)F)c1c(Br)cccc1Oc1ncc(Cl)cn1
-- reply 5

----------
System: velvetleaf (Abutilon theophrasti)
TEST: Test C postemergence, plant response rating
Format: in vivo
CONDITION_DETAILS: Abutilon theophrasti, post-emergence, 125 g ai/ha, scale 0 to 100 (0 no effect, 100 complete control)
RESULT_TYPE: pest or weed control at 125 g/ha (%)
Numbers only, in %.

COMPOUND	STUDY_TARGET	RESULT_TYPE	ASSAY_RESULT
N#Cc1cccc(Oc2ncc(Cl)cn2)c1CCCCC(F)(F)F [Compound 73]	velvetleaf (Abutilon theophrasti)	pest or weed control at 125 g/ha	75
C=CCCOC(=O)c1c(Br)cccc1Oc1ncc(Cl)cn1 [Compound 21]	velvetleaf (Abutilon theophrasti)	pest or weed control at 125 g/ha	70
O=C(OCCC(F)(F)F)c1c(Cl)cccc1Oc1ncc(Cl)cn1 [Compound 15]	velvetleaf (Abutilon theophrasti)	pest or weed control at 125 g/ha	85

-- ask State, in one line, measured pest or weed control at 125 g/ha of O=C(CCC(F)(F)F)c1c(Cl)cccc1Oc1ncc(Cl)cn1 [Compound 107]
-- reply 90
